tested on: Candida albicans No. 927; experiment: Antifungal activity, culture growth with pH indicator; assay type: cell-based; design: key: (−) No growth; the indicator is blue; (±) Weak growth; the indicator is yellow, but the precipitate of grown cells looks as a diffuse spot; (+) Strong growth; the indicator is yellow, and the cell precipitate looks as a compact spot; settings: dilution 0: 1 × 10^−4 M
property name: Test culture growth at various dilutions of the agent

- C=CC1=C(C)c2cc3[n-]c(cc4[n-]c(cc5nc(cc1n2)C(C)=C5C=C)c(C)c4CCC(=O)O)c(CCC(=O)O)c3C.[Cl-].[Fe+3] [Hem, hemin]: ±
- C=CC1=C(C)c2cc3[n-]c(cc4nc(cc5[n-]c(cc1n2)c(C)c5CCC(=O)N[C@@H](CCC(=O)N[C@@H](CCCNC(=N)N)C(=O)OC)C(=O)N[C@@H](CCCNC(=N)N)C(=O)OC)C(CCC(=O)N[C@@H](CCC(=O)N[C@@H](CCCNC(=N)N)C(=O)OC)C(=O)N[C@@H](CCCNC(=N)N)C(=O)OC)=C4C)c(C)c3C=C.[Cl-].[Fe+3] [Compound XVIII]: −
- C=CC1=C(C)c2cc3[n-]c(cc4nc(cc5[n-]c(cc1n2)c(C)c5CCC(=O)NCCO)C(CCC(=O)NCCO)=C4C)c(C)c3C=C.[Cl-].[Fe+3] [Compound XIV]: ±
- C=CC1=C(C)c2cc3[n-]c(cc4nc(cc5[n-]c(cc1n2)c(C)c5CCC(=O)N[C@@H](CCCNC(=N)N)C(=O)OC)C(CCC(=O)N[C@@H](CCCNC(=N)N)C(=O)OC)=C4C)c(C)c3C=C.[Cl-].[Fe+3] [VII]: ±
- C=CC1=C(C)c2cc3[n-]c(cc4nc(cc5[n-]c(cc1n2)c(C)c5CCC(=O)N[C@@H](CO)C(=O)OC)C(CCC(=O)N[C@@H](CO)C(=O)OC)=C4C)c(C)c3C=C.[Cl-].[Fe+3] [VIII]: ±
- C[C@@H]1C/C=C/C=C/C=C/C=C/[C@H](O[C@@H]2O[C@H](C)[C@@H](O)[C@H](N)[C@@H]2O)C[C@@H]2O[C@](O)(C[C@@H](O)C[C@H]3O[C@@H]3/C=C/C(=O)O1)C[C@H](O)[C@H]2C(=O)O [Pimafucin, reference compound]: −

* * *

Measured MICs for hemin derivatives against Gr+ strains values are reported for all entries that follow.
system: Enterococcus faecium No. 569; experiment: Specific activity against resistant bacterial strains; format: cell-based; settings: Ent. faecium 569; 24 h, 36° C.
property name: MICs for hemin derivatives against Gr+ strains

* C=CC1=C(C)c2cc3[n-]c(cc4nc(cc5[n-]c(cc1n2)c(C)c5CCC(=O)NCCO)C(CCC(=O)NCCO)=C4C)c(C)c3C=C.[Cl-].[Fe+3] [Compound XIV] | >5e-05 M
* C=CC1=C(C)c2cc3[n-]c(cc4nc(cc5[n-]c(cc1n2)c(C)c5CCC(=O)N[C@@H](CO)C(=O)OC)C(CCC(=O)N[C@@H](CO)C(=O)OC)=C4C)c(C)c3C=C.[Cl-].[Fe+3] [VIII] | >5.0. ×10^−5 M
* C=CC1=C(C)c2cc3[n-]c(cc4nc(cc5[n-]c(cc1n2)c(C)c5CCC(=O)N[C@@H](CCCNC(=N)N)C(=O)OC)C(CCC(=O)N[C@@H](CCCNC(=N)N)C(=O)OC)=C4C)c(C)c3C=C.[Cl-].[Fe+3] [VII] | >5e-05 M
* C=CC1=C(C)c2cc3[n-]c(cc4nc(cc5[n-]c(cc1n2)c(C)c5CCC(=O)N[C@@H](CCC(=O)N[C@@H](CCCNC(=N)N)C(=O)OC)C(=O)N[C@@H](CCCNC(=N)N)C(=O)OC)C(CCC(=O)N[C@@H](CCC(=O)N[C@@H](CCCNC(=N)N)C(=O)OC)C(=O)N[C@@H](CCCNC(=N)N)C(=O)OC)=C4C)c(C)c3C=C.[Cl-].[Fe+3] [Compound XVIII] | 6.25e-06 M
